# STUDY_SYSTEM: UniProtKB P06276
# Sequence (P06276 whole entry): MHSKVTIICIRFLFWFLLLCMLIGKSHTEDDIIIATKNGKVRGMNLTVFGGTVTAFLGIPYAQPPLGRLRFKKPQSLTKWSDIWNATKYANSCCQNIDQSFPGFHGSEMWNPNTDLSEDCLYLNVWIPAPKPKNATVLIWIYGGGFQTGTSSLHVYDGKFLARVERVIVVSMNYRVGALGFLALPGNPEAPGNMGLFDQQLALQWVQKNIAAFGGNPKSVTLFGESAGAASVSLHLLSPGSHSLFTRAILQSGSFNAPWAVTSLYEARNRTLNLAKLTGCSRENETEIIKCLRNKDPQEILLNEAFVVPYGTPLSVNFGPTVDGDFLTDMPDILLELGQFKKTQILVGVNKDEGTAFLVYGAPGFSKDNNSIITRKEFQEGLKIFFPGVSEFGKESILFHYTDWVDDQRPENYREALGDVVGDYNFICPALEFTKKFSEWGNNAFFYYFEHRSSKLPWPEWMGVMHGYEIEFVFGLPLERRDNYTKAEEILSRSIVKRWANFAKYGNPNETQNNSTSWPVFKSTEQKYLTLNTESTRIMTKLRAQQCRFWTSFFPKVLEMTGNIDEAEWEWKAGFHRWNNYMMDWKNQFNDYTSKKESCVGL
# PROTOCOL_DESCRIPTION: Inhibition of human serum BuChE at 100 uM using butyrylthiocholine iodide as substrate incubated for 5 mins followed by substrate addition measured after 180 secs by Ellman's method relative to control
Respond with 1 (yes) for inhibition values of 20% and above, 0 (no) for values below.

[[record]]
input_smiles = "CC(C)(C)c1cc(CCC(=O)NCCC2CCN(Cc3ccccc3)CC2)cc(C(C)(C)C)c1O"
class_label = "1 (yes)"

[[record]]
input_smiles = "CC(C)(C)c1cc(/C=C/C(=O)NCC2CCN(Cc3ccccc3)CC2)cc(C(C)(C)C)c1O"
class_label = "1 (yes)"

[[record]]
input_smiles = "CC(C)(C)c1cc(C(=O)NCCC2CCN(Cc3ccccc3)CC2)cc(C(C)(C)C)c1O"
class_label = "0 (no)"

[[record]]
input_smiles = "CC(C)(C)c1cc(/C=C/C(=O)NCCC2CCN(Cc3ccc(C#N)cc3)CC2)cc(C(C)(C)C)c1O"
class_label = "1 (yes)"

[[record]]
input_smiles = "CC(C)(C)c1cc(/C=C/C(=O)NC2CCN(Cc3ccccc3)CC2)cc(C(C)(C)C)c1O"
class_label = "0 (no)"

[[record]]
input_smiles = "CC(C)(C)c1cc(C(=O)CNC2CCN(Cc3ccccc3)CC2)cc(C(C)(C)C)c1O"
class_label = "1 (yes)"

[[record]]
input_smiles = "Cc1ccccc1CN1CCC(CCNC(=O)/C=C/c2cc(C(C)(C)C)c(O)c(C(C)(C)C)c2)CC1"
class_label = "1 (yes)"

[[record]]
input_smiles = "CC(C)(C)c1cc(CCC(=O)NC2CCN(Cc3ccccc3)CC2)cc(C(C)(C)C)c1O"
class_label = "0 (no)"

[[record]]
input_smiles = "CC(C)(C)c1cc(CCC(=O)NCC2CCN(Cc3ccccc3)CC2)cc(C(C)(C)C)c1O"
class_label = "0 (no)"

[[record]]
input_smiles = "CC(C)(C)c1cc(C(=O)NCC2CCN(Cc3ccccc3)CC2)cc(C(C)(C)C)c1O"
class_label = "1 (yes)"

[[record]]
input_smiles = "CC(C)(C)c1cc(/C=C/C(=O)NCCC2CCN(Cc3ccccc3F)CC2)cc(C(C)(C)C)c1O"
class_label = "1 (yes)"


---

The entries below are paired with their reported pIC50.
# STUDY_SYSTEM: Cholinesterase (Equus caballus, UniProt P81908)
# Sequence (P81908 whole entry): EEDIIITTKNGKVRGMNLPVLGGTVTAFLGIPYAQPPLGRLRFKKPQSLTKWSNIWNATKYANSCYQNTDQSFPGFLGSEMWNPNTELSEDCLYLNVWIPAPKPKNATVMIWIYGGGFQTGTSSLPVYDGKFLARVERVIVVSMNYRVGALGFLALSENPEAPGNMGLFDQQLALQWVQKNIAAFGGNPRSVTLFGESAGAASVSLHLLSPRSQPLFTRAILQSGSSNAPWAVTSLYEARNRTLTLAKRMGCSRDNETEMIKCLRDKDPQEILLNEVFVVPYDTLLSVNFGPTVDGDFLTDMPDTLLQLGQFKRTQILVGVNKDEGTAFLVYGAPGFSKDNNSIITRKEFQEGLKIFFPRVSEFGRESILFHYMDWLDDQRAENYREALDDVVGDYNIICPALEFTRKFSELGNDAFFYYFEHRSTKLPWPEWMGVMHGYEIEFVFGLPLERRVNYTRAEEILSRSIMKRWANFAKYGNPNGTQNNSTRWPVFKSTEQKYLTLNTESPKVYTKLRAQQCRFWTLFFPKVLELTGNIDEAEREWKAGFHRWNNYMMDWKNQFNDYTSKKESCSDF
# PROTOCOL_DESCRIPTION: Inhibition of equine serum BuChE using butyrylthiocholine iodide as substrate incubated for 5 mins followed by substrate addition measured after 180 secs by Ellman's method
pIC50: −log10 of the molar value.
PARAMETER_MEASURED: pIC50

[[record]]
input_smiles = "O=C(/C=C/c1ccc(O)cc1)NCCC1CCN(Cc2ccccc2)CC1"
parameter_measured = "pIC50"
obs_value = 5.90

[[record]]
input_smiles = "CC(C)(C)c1cc(C(=O)CNCC2CCN(Cc3ccccc3)CC2)cc(C(C)(C)C)c1O"
parameter_measured = "pIC50"
obs_value = 5.27

[[record]]
input_smiles = "CC(C)(C)c1cc(C(=O)CNCCC2CCN(Cc3ccccc3)CC2)cc(C(C)(C)C)c1O"
parameter_measured = "pIC50"
obs_value = 4.31


---

# STUDY_SYSTEM: Acetylcholinesterase (Electrophorus electricus) (UniProt O42275)
# Sequence (O42275 24-633 limits assumed): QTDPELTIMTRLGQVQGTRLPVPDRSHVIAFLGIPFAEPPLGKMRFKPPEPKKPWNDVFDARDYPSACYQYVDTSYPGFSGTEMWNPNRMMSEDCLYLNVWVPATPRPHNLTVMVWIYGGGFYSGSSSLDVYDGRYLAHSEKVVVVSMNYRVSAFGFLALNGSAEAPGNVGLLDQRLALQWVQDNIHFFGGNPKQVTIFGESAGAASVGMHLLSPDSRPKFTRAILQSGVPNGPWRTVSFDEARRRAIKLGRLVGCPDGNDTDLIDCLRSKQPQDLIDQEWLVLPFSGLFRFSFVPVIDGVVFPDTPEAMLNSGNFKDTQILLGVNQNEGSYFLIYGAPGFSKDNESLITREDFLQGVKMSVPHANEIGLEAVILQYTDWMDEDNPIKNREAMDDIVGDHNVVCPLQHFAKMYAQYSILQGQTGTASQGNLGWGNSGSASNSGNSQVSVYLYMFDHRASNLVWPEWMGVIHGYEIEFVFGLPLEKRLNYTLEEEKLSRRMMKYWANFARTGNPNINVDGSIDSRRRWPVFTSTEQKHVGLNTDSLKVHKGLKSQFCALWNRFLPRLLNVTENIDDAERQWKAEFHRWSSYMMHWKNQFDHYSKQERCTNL
# PROTOCOL_DESCRIPTION: Inhibition of electric eel AChE at 100 uM using acetylthiocholine chloride as substrate incubated for 5 mins followed by substrate addition measured after 180 secs by Ellman's method relative to control
Respond with yes (1) for inhibition values of 40% and above, no (0) for values below.

[[record]]
input_smiles = "CC(C)(C)c1cc(C(=O)CNC2CCN(Cc3ccccc3)CC2)cc(C(C)(C)C)c1O"
class_label = "yes (1)"

[[record]]
input_smiles = "CC(C)(C)c1cc(/C=C/C(=O)NCC2CCN(Cc3ccccc3)CC2)cc(C(C)(C)C)c1O"
class_label = "no (0)"

[[record]]
input_smiles = "CC(C)(C)c1cc(C(=O)NCC2CCN(Cc3ccccc3)CC2)cc(C(C)(C)C)c1O"
class_label = "no (0)"

[[record]]
input_smiles = "CC(C)(C)c1cc(C(=O)NCCC2CCN(Cc3ccccc3)CC2)cc(C(C)(C)C)c1O"
class_label = "yes (1)"

[[record]]
input_smiles = "CC(C)(C)c1cc(CCC(=O)NC2CCN(Cc3ccccc3)CC2)cc(C(C)(C)C)c1O"
class_label = "no (0)"

[[record]]
input_smiles = "CC(C)(C)c1cc(/C=C/C(=O)NC2CCN(Cc3ccccc3)CC2)cc(C(C)(C)C)c1O"
class_label = "no (0)"

[[record]]
input_smiles = "CC(C)(C)c1cc(CCC(=O)NCC2CCN(Cc3ccccc3)CC2)cc(C(C)(C)C)c1O"
class_label = "no (0)"

